Entry source: PubChem BioAssay (NCI)

tested on: CCRF-CEM leukemia; experiment: NCI tumour cell line growth inhibition, 48 h; in the data active = GI50 below about 0.43 µM; inactive = the rest
The categories you may choose from are active, inactive

Task: In this assay, the call recorded for CCOc1cc(/C=C/C(=O)CC(=O)/C=C/c2ccc(OC(=O)CNc3nc4ccc(OC)cc4s3)c(OCC)c2)ccc1OC(=O)CNc1nc2ccc(OC)cc2s1 was what?
Output: inactive

Task: Can you look up the reported call for Nc1nc(N)c2cc(S(=O)(=O)c3cccc(C(F)(F)F)c3)ccc2n1 for me?
Output: inactive

Task: Call for entry CCn1c(-c2nonc2N)nc2cnc(Oc3cccc(NC(=O)c4ccc(OCCN5CCOCC5)cc4)c3)cc21 :
Output: inactive

Task: Test call, this molecule: COc1cccc2c1C(=O)c1c(O)c3c(c(O)c1C2=O)C[C@@](O)(/C(C)=N/NC(=O)c1cccc([N+](=O)[O-])c1)C[C@@H]3OC1CC(N)C(O)C(C)O1 (stereo not given in full)
Output: active

Task: Please state the recorded outcome for this molecule: CC(C)Cn1cnc2c(N)nc3ccccc3c21
Output: inactive
